Documented kon across a set of binders
Target: T1, human CD22-ECD-His protein (human, UniProt P20273 20-687)
T1 construct: Recombinant, from HEK293E cells; also called hCD22-ECD-His; human CD22-His protein; not shown: His tag
T1 sequence: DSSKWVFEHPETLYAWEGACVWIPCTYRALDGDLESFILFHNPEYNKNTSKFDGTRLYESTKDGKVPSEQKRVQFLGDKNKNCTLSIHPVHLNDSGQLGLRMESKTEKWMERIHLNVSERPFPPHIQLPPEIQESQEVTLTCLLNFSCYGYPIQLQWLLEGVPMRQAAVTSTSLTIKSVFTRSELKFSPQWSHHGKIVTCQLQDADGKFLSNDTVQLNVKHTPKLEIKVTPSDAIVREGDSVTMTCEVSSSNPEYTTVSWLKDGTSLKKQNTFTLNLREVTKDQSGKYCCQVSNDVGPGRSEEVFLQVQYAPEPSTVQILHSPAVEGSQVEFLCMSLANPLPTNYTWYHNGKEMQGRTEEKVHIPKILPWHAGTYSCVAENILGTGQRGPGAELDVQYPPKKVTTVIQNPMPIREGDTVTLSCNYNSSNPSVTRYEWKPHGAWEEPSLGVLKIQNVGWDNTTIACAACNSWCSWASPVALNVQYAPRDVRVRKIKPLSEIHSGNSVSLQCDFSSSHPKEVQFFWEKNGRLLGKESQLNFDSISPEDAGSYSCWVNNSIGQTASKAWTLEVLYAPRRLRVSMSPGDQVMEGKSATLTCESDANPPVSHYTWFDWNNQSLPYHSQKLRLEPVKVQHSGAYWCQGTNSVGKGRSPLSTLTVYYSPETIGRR
Assay: SPR (Biacore), antibody captured on Protein A chip, CD22-ECD-His in solution
Hi! Could you send only the number? It should be in M⁻¹ s⁻¹, unit omitted.

Binder	Value Unit	kon
F1.267.9 (antibody, human IgG1, kappa, V domains shown, Chimeric IgG1 kappa) VH: EVQLQQSGPVLVKPGASVKMSCKASGYTFTDFYMNWAKQSHGKSLEWVGVINPYNGGINYNQKFKGKATLTVDKSSSTAYMEFNSLTSEDSAVYYCARRMEYHAMDYWGQGTSVTVSS VL: DIVLTQSPASLAVSLGQRATISCRASESVDNYGFDFIHWYQQKPGQPPKLLIYRASNLESGIPARFSGSGSRPDFTLTINPVETDDVATYYCQQSIKDPWTFGGGTKLEIKR	M⁻¹ s⁻¹	5440

IN: Entry under review: F1.245.2 (antibody, human IgG1, kappa, V domains shown, Chimeric IgG1 kappa) VH: EVQLQQSGAELVKPGASVKLSCTGSGFNIKDYYIHWVKQRTEQGLEWMGRIDPEDGETEYAPKFQDEATITSDTSSNTAYLQLSSLTYEDTAVYYCAREAAGYFYRGSSYGYFDVWGTGTTVTVSS VL: DFQMTQTTSFLSASLGDRVTISCSASQDISNYLNWYQQKPDGTVKLLIYYTSSLHSGVPSRFSGSGSGTDYSLTISNLEPEDIATYYCQQYSMLPYTFGGGTKLEMER . Reported kon?
OUT: 2.6e+06

IN: Entry under review: F2.205.9 (antibody, human IgG1, lambda, V domains shown, Chimeric IgG1 lambda) VH: QVTLKESGPGILQPSQTLSLTCSFSGFSLSTSGMGVGWIRQPSGKGLEWLAHIWWDDDEYYNPALKSRLTISKDTSKNQVFLKIANVDTADTATYYCARISIPYGYYDWFFDVWGTGTTVTVSA VL: QAVVTQESALTTSPGETVTLTCRSSTGAVTTRNYANWVQEKPDHLFTGLIGGTNNRAPGVPARFSGSLIGDKAALTITGAQTEDEAIYFCALWYSNHFIFGSGTKVTVLG . Reported kon?
OUT: 246000

IN: Entry under review: F1.7.6 (antibody, human IgG1, kappa, V domains shown, Chimeric IgG1 kappa) VH: EIQLQQSGPELVKPGTSVKVSCKASGYDFTRYNMYWVKQSHGKSLEWIGYIDPYNGDTRYNQKFKGKATLTVDKSSSTAYMHLNSLTSEDSAVYYCEAIYYDMEGYALDYWGQGTSVTVSS VL: DIVMSQSPSSLAVSVGEKVTMSCKSSQSLLYSNNQKNYLAWYQQKPGQSPKKLIYWASTRESGVPDRLTGSGSGTDFTLTISSVTAEDLAVYYCQQFYSYPWTFGGGTKLEIKR . Reported kon?
OUT: 120000
